testProtocol: S. pombe growth modifiers, basal conditions – strain 972, OD600, 24 h, no modulator, primary screen (AID 1090);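 further: basal condition with compound alone and no growth modifier present; test concentration not given here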
settings: S. pombe 972 growth, higher = more signal, called active from +8 up or from −8 down
The source made the active and inactive calls.
z-score reference

For orientation, consider the following solved cases.
compound	z-score
O=S(=O)(NCCCO)c1ccc(Br)cc1	-1.57 (inactive)
O=P(NCC1(CC2(c3ccccc3)CO2)CC1)(c1ccccc1)c1ccccc1 (stereo not given)	1.08 (inactive)
CCCC[C@H]1OB(O)C[C@H]2C1=C(C)Cn1c(=O)n(-c3ccccc3)c(=O)n12	1.19 (inactive)
Cc1ccc(S[C@]2(C(=O)NCC(C)C)CC(=O)N(Cc3ccccc3)[C@@H]2c2ccc(CO)cc2)cc1	-1.14 (inactive)

Consider now this further compound.
Lab note: `COC(=O)[C@@]1(Cc2ccc(OC)cc2)[C@H]2c3cc(C(=O)N4CCCC4)n(C[C@H](O)CO)c3C[C@H]2CN1C(=O)c1ccccc1` gave z-score of 1.13 (inactive)

* * *

testProtocol: S6 kinase pathway phospho-S6 level changes – cell-based, A549, cytoblot, luminescence, serum-stimulated, primary screen (AID 1158);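 further: serum-stimulated A549 lung adenocarcinoma cells; signal is phosphorylated S6 detected by cytoblot immunostaining with HRP secondary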
settings: 5 h, higher = more signal
propertyMeasured: z-score
Could you keep your reply to the number by itself?

# example entries with known answers
compound	propertyMeasured	dataValue
O=c1cccc(-c2cccc3ccccc23)o1	z-score	-0.312
CC(C)N1C(=O)c2ccccc2[C@](C)(C(=O)NCCCN(C)C)[C@@H]1c1ccc(CO)cc1	z-score	0.564

The compound listed as `[N-]=[N+]=NCc1ccccc1[C@@H]1OC(c2ccc(OCCCO)cc2)=N[C@]1(Cc1ccccc1N=[N+]=[N-])C(N)=O` shows z-score equal to -0.0826

The reported value for `C=CCN1C(=O)[C@]2(Cc3ccccc31)N=C(c1ccc(OCCCO)cc1)O[C@@H]2c1ccccc1` in terms of z-score is 0.253

Value of measured z-score for the entry O=C1OCCC=C[C@H]2OC34C=CCN(CCN5CCOCC5)C(=O)[C@H]3N(CCO)C(=O)[C@@H]4C12 (stereo not given in full) : 0.65

So, `O=C(N1CCCCC1)[C@]1(CCS(=O)(=O)c2ccccc2)N=C(c2ccc(OCCCO)cc2)O[C@@H]1c1ccccc1` ? Its z-score was 1.54

# z-score of `CCCC[C@H]1OB(O)C[C@H]2C1=C(C)Cn1c(=O)n(-c3ccccc3)c(=O)n12` = 0.441

Record `COc1ccc([Si](C)(C)[C@H]2[C@H](CC(=O)N(CCO)Cc3ccccc3)O[C@@]3(C(=O)N(Cc4cccc(N5C(=O)c6cccc7cccc5c67)c4)c4ccccc43)[C@@H]2C)cc1` , field z-score: 2.67

So, CC(C)C(CO)N1C(=O)[C@@H]2[C@H]3C(=O)OCC=C[C@H]3OC23C=CCN(c2ccc4ccccc4c2)C(=O)[C@@H]13 (stereo not given in full) ? Its z-score was -0.575

Noted for `CN(C)CCCN1C(=O)[C@@]2(c3ccc([N+](=O)[O-])cc3)CC(=O)N(C3CCCCC3)[C@@H]2c2ccc(CO)cc21` : its z-score reads 0.759

For `CC(C)C(=C=CC[C@H](O)c1ccccc1OCCO)CCO` the compound record lists z-score as -0.2

* * *

testProtocol: growth effects on S. cerevisiae YJM789 – YJM789 clinical isolate, OD600, 24 h, basal, primary screen (AID 1089);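 further: growth of clinical yeast isolate S. cerevisiae YJM 789 seeded 1000 cells per well; test concentration not given here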
settings: higher = more signal, called active from +8 up or from −8 down
Parameter: z-score. Scope: all listed entries.
Form field (numeric): enter value without unit.

compound	dataValue
CC(C)OC(=O)C1=CCC(c2cccc(Cl)c2)O1 (configuration not stated)	-3.2
O=C(NCCN1CCOCC1)[C@@H]1c2ccccc2C(=O)N(Cc2cc(F)cc(C(F)(F)F)c2)[C@H]1c1ccc(CO)cc1	-0.718
CCOC(=O)C[C@H]1[C@H](OC(=O)c2ccccc2-c2ccccc2)[C@@H](NC(=O)c2ccc(-c3ccccc3)cc2)c2cc(OCCCO)ccc2N1C(=O)c1ccccc1	0.742
COC(=O)[C@@]1(Cc2ccc(OC)cc2)[C@H]2c3cc(C(=O)N(C)C)n(CCSCCO)c3C[C@H]2CN1C(=O)c1ccccc1	-0.526
O=C(CS)NCCCCCNC(=O)[C@H]1C[C@H]2C(=O)N[C@@H](Cc3ccccc3)C(=O)N2[C@H]1c1cccc(OCCO)c1	-3.02

Record summary for `C=CC[C@]1(C(=O)O)N=C(c2ccc(OCCCO)cc2)O[C@H]1c1ccccc1CN=[N+]=[N-]` : reported z-score = 0.442

Recorded z-score (compound `COc1ccc(C(=O)Nc2cccc(CN3C(=O)[C@@]4(O[C@@H](CCn5cc([C@H](O)c6ccccc6)nn5)[C@H]([Si](C)(C)c5ccc(OC)cc5)[C@H]4C)c4ccccc43)c2)cc1` ): -0.384

Form field z-score, entry `COc1ccc([Si](C)(C)[C@H]2[C@H](CCO)O[C@@]3(C(=O)N(Cc4ccccc4)c4ccc(N5C(=O)COc6ccccc65)cc43)[C@@H]2C)cc1` : 0.773

Value of z-score reported for the compound C=CCC(OC(C)=O)[C@@H]1[C@@H](N(Cc2cc3ccccc3o2)C(=O)c2cccc3ccccc23)c2cc(OCCCO)ccc2N1C(=O)Cc1ccc(OC)cc1 (some centres not stated) is -0.0559

The value of z-score measured for the compound `[N-]=[N+]=Nc1ccccc1C[C@]1(C(=O)N2CCCCC2)N=C(c2ccc(OCCCO)cc2)O[C@H]1c1ccccc1N=[N+]=[N-]` turned out to be 0.0343

The reported measurements were obtained from PubChem BioAssay.
